subject_of_test: Salicylate hydroxylase (NahG) (Pseudomonas putida)
Sequence (P23262 1-434): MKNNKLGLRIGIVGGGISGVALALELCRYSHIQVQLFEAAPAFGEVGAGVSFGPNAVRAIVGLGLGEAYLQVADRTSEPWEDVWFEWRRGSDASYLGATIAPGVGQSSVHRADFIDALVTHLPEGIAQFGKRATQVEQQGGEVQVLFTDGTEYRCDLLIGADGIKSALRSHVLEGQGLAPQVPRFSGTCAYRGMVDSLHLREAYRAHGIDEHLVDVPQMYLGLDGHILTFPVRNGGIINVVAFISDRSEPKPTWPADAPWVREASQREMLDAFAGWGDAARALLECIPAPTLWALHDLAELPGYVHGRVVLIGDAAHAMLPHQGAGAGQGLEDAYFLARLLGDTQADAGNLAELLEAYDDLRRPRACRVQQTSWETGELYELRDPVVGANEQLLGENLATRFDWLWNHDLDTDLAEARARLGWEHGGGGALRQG
protocol_description: fluorometric titration
Assay type: binding
parameter: Kd
For clarity, give the value followed by its unit.

The compound listed as O=C(O)c1ccccc1O [salicylate] shows Kd equal to 280 nM
